System: MS2 coat protein
Experiment: apparent KD of MS2 coat protein; designed switch direction (-1 OFF switch, 1 ON switch): -1; higher = weaker reporter binding
Settings: input ligand: microRNA oligo, concentration not stated
// label = met if apparent KD of MS2 coat protein is not less than 20 nM, otherwise not met

residue_string="AUUGUUUAUGUAGGAUAUGCCUGGCGUGCCUUCGCAGAAGGACAUGAGGAUCACCCAUGUAUUGCGGUCUGCGUUCAGAUCGCC [salish99_ExNG1_r4_027] (Eterna round: R96, puzzle: Exclusion NG 1)" target="MS2 coat protein" label="not met"
residue_string="CGGAACCAGACAGGAUAUACCUGUCCGAGACAGACACACAUGAGGAUCACCCAUGUUGAUGUCAGGUAGAAGGGUCAUAAAGAC [Eternabot solution 7] (Eterna round: R96, puzzle: Exclusion NG 2)" target="MS2 coat protein" label="not met"
residue_string="ACAUGAGGAUCACCCAUGUUCGGCUGGUCCGUUUCGGCUGUCGAGGAUAUAGUUCGGUGUCCGCGCUAGAAGGCGGGAGCCGGC [Aenatbe mod 63] (Eterna round: R96, puzzle: Exclusion NG 3)" target="MS2 coat protein" label=met
residue_string="UAUAUAUAGUAAGGAUAUGUAUAUUUUUUAUAAACAGAAGGUACUGACAUGAGGAUCACCCAUGUUUUAGUGUGGGCAUGUAGA [JMF's solution 53] (Eterna round: R96, puzzle: Exclusion NG 1)" target="MS2 coat protein" label=met
residue_string="UUUUUAGAUGAAGGAUAUACUUAACAUGAGGAUCACCCAUGUGGUGUUGUGAGUGAGUGAGUUUAGUAGAAGGUCAAUUAUUUU [JMF's solution 21] (Eterna round: R96, puzzle: Exclusion NG 2)" target="MS2 coat protein" label=met

---

Items are presented alongside their recorded apparent KD of K4 kissing-loop reporter.
System: K4 kissing-loop RNA reporter;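 note: bound reporter read as fluorescence of individual clusters on recovered sequencing chips by microscopy, with normalized cluster intensities fitted with a binding model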
Experiment: apparent KD of K4 kissing-loop reporter; higher = weaker reporter binding
Conditions: Eterna round: R107; input ligand: theophylline 20 uM
Quantity Kind: apparent KD of K4 kissing-loop reporter (nM)

residue_string="UAUACGAAGCAGUGAUGUUGCUUAUGAGAAGGAGCGCACGAAAGUGCAGGUAGGUCGCUCAGCCAUGUGGACGAAAACGUCCACA [whbob_SS_Arginine_A_sa110]" quantity_kind="apparent KD of K4 kissing-loop reporter" quantity_unit=nM measured_value=137
residue_string="UGAUACCAGACGGCCGCCACUACACCAGUCAAAGACUGGAUGUGAUGUUCGACCAGUGAUGUUGGUAGGACCGGGUCUGGUAUCU [TrypBX 7 #Palindromic #SwitchBubble #StaticStem]" quantity_kind="apparent KD of K4 kissing-loop reporter" quantity_unit=nM measured_value=109
residue_string=UGAUAGGACAGAAGGAGCGGGAGUGAUGUUCCCAAAAGGAUAAGGUGUCAAAAGACACCCUCCCAGGUAGGUCGCUGUCCUAUCU quantity_kind="apparent KD of K4 kissing-loop reporter" quantity_unit=nM measured_value=532

---

System: MS2 coat protein
Assay: apparent KD of MS2 coat protein; higher = weaker reporter binding
Details: Eterna round: R107; input ligand: theophylline 20 uM
Quantity Kind: apparent KD of MS2 coat protein (µM)

residue_string="ACUAACUAUAGUGAUACCAGACGUACAUGAGGAUCACCCAUGUUACAUUCUUGGUUAAAAGUCCCUUGGCAGCACGAUAAGUUCG [JR_Nu_ExcTheophyB_Sub025]" quantity_unit=µM measured_value=0.0112
residue_string=AAGGAAAAGGCGGCCGCCACUGGAAAGGCGAAAGCCAAGAAAACAUGAGGAUCACCCAUGUCAUGUAGGACCGGGCCAAAAGGAA quantity_unit=µM measured_value=0.0263
residue_string="GCAUCCUAGUCGGCCGCCACUGGUACGAACACCUUCACCCGUGUGCACAUGAGGAUCACCCAUGUUAGGACCGGGACUAGGAUGC [SSTryp B #21]" quantity_unit=µM measured_value=0.011
residue_string="AUAAGUAAGUUUUCGUGUUUUAUUACAGAUACCAGACUAUACGUUGUCCCUUGGCAGCUGGAUUACAUGAGGAUCACCCAUGUUG [#25 Exclusion-TheophyllineA]" quantity_unit=µM measured_value=0.0339
residue_string="CGGUUUGUGAUGGAUACCAGCAGAGUGGCUGUUUAUCCUGACAUGAGGAUCACCCAUGUGUGCCCUUGGCAGCUGUUGUGGGCUG [8.aB]" quantity_unit=µM measured_value=0.137
residue_string="CCUCAAUAGACGGCCGCCACUGAAUCAUGCGGAUACAUGAGGAUCACCCAUGUGGGUGUGGUACGCAGGACCGGGUCAAGACCCG [#13 Same State - Tryptophan B]" quantity_unit=µM measured_value=0.454
